# measured-target: MMP-9 (HNG; human neutrophil gelatinase) (Homo sapiens)
# Sequence (P14780 94-707): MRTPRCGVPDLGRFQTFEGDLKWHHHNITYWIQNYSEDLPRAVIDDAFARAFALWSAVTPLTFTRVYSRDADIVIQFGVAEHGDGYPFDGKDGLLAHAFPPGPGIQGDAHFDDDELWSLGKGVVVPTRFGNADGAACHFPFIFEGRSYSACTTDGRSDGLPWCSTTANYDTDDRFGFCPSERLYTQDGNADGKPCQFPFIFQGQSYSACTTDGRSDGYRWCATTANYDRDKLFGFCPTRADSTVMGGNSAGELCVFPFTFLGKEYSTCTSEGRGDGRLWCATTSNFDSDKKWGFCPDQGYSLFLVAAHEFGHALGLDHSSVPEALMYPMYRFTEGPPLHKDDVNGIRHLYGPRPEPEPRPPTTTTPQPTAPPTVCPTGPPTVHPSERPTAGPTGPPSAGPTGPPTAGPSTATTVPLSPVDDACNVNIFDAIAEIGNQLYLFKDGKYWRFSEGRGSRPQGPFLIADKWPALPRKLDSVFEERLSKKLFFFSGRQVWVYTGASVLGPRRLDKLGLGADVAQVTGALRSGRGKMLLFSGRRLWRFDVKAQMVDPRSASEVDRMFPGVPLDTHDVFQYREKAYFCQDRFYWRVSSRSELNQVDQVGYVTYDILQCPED
# procedure-summary: Enzyme kinetic assay, inhibition of MMP-9
# reported-conditions: read-out: Ki (value in parentheses), HNG MMP-9
pKi: −log10 of the molar value. Counter-ions that a name gives are not always drawn.
measured-metric: pKi

I. O=S(=O)(N[C@H]1CNC[C@@H]1S)c1ccc(Oc2ccccc2)cc1 [Example 10, Hydrochloride]
II. O=C(OCc1ccccc1)N1C[C@H](NS(=O)(=O)c2ccc(-c3ccccc3)cc2)[C@@H](S)C1 (racemic)
query: Between the two listed entries I and II , which has its pKi at the higher number? Your choice should be expressed through its label.
result: II

###

Measured pIC50 of individual entries
# measured-target: UniProt:P03956
# Sequence (P03956 100-469): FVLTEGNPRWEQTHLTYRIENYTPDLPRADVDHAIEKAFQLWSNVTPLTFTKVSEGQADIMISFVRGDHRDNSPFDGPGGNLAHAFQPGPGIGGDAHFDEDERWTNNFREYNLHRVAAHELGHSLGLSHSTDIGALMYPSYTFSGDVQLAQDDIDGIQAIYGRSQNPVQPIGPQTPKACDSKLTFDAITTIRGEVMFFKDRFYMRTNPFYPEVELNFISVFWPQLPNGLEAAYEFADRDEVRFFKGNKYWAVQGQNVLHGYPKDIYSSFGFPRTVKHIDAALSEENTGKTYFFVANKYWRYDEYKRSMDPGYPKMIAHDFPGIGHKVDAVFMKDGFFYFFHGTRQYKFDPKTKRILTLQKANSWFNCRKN
# procedure-summary: Enzyme kinetic assay, inhibition of MMP-1
# reported-conditions: 25° C., pH 7.5, substrate 1 μM; read-out: IC50 (value without parentheses), HFC MMP-1
pIC50: −log10 of the molar value. Counter-ions that a name gives are not always drawn.

Worked cases, pIC50 given:
query: Give its pIC50 value. Item: CC(=O)NCCCCCC(=O)N1C[C@H](NS(=O)(=O)c2ccc(Oc3ccccc3)cc2)[C@@H](S)C1 (racemic) [Example 8]
result: < 5.22

query: Look at this compound and give its reported pIC50. O=S(=O)(N[C@H]1CNC[C@@H]1S)c1ccc(Oc2ccccc2)cc1 (racemic) [Example 3, Hydrochloride]
result: ~4.60

query: So what's the measured pIC50 for this one? CC(=O)NCCCCCC(=O)N1C[C@H](NS(=O)(=O)c2ccc(-c3ccccc3)cc2)[C@@H](S)C1 (racemic) [Example 9]
result: < 5.22

query: # pIC50 lookup, item O=C(OCc1ccccc1)N1C[C@H](NS(=O)(=O)c2ccc(-c3ccccc3)cc2)[C@@H](S)C1 (racemic) [Example 6]
result: < 3.89

query: Look at this compound and give its reported pIC50. O=C(OCc1ccccc1)N1C[C@@H](S)[C@@H](NS(=O)(=O)c2ccc(Oc3ccccc3)cc2)C1 [Example 14]
result: < 5.52

query: For the compound shown here, NCCCCCC(=O)N1C[C@H](NS(=O)(=O)c2ccc(Oc3ccccc3)cc2)[C@@H](S)C1 (racemic) [Example 7, Hydrochloride] , give the reported pIC50.
result: < 5.52

More entries:
query: Requested field: pIC50. Item: O=C(OCc1ccccc1)N1C[C@H](NS(=O)(=O)c2ccc(Oc3ccccc3)cc2)[C@@H](S)C1 (racemic) [Example 5]
result: < 4.90

###

# measured-target: MMP-3 (HFS; human fibroblast stromelysin-1) (Homo sapiens, UniProt P08254)
# Sequence (P08254 100-477): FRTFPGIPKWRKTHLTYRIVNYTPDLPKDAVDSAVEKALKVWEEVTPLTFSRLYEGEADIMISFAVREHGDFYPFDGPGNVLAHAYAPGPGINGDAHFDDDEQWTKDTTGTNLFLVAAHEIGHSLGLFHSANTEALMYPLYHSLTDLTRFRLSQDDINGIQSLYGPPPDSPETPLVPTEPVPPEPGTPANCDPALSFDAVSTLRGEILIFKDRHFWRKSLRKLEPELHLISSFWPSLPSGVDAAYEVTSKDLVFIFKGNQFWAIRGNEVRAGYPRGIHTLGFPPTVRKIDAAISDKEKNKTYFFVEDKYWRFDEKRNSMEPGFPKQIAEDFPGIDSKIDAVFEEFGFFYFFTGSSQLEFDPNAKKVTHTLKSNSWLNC
# procedure-summary: Enzyme kinetic assay, inhibition of MMP-3
# reported-conditions: 25° C., pH 7.5, substrate 1 μM; read-out: IC50 (value without parentheses), HFS MMP-3
# Lookup of reported IC50 keyed by entry

query: Please report the recorded IC50 for O=C(OCc1ccccc1)N1C[C@H](NS(=O)(=O)c2ccc(-c3ccccc3)cc2)[C@@H](S)C1 (racemic) [Example 6] .
result: ~7 µM

Turning to the following molecule.
query: What measured IC50 goes with CC(=O)NCCCCCC(=O)N1C[C@H](NS(=O)(=O)c2ccc(-c3ccccc3)cc2)[C@@H](S)C1 (racemic) [Example 9] ?
result: ~20 µM

###

# measured-target: MMP-2 (HFG; human fibroblast gelatinase) (Homo sapiens)
# Sequence (P08253 110-660): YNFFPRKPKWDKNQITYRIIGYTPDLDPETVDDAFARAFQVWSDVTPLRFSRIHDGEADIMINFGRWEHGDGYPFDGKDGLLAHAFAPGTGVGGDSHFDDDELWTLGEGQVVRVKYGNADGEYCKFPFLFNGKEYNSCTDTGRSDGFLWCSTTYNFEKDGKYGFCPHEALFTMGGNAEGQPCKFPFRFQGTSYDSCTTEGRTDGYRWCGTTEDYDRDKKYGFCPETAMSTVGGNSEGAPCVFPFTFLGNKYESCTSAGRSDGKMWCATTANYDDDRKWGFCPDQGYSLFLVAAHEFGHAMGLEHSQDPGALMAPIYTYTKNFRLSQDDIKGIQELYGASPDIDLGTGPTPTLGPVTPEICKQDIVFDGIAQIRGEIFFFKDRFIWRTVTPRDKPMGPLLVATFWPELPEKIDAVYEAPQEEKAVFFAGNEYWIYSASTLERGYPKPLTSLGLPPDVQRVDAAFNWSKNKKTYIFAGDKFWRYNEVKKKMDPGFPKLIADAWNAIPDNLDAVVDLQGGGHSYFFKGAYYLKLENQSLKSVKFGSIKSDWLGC
# procedure-summary: Enzyme kinetic assay, inhibition of MMP-2
# reported-conditions: read-out: Ki (value in parentheses), HFG MMP-2
Where a name gives a salt, the structure may show the parent alone.
measured-metric: Ki (nM)

Past entries and their recorded results:
query: Quick one: Ki of O=C(OCc1ccccc1)N1C[C@H](NS(=O)(=O)c2ccc(Oc3ccccc3)cc2)[C@@H](S)C1 (racemic) ?
result: 24

query: I have this compound here, NC(=O)N1C[C@H](NS(=O)(=O)c2ccc(Oc3ccccc3)cc2)[C@@H](S)C1 [Example 12] , and I need its recorded Ki.
result: 10

query: Returns the measured Ki for the input compound. Input: O=S(=O)(N[C@@H]1CNC[C@H]1S)c1ccc(Oc2ccccc2)cc1 [Example 11, Hydrochloride]
result: 49

query: For O=C(OCc1ccccc1)N1C[C@H](NS(=O)(=O)c2ccc(-c3ccccc3)cc2)[C@@H](S)C1 (racemic) , what is its reported Ki?
result: 78

query: Please give the measured Ki for this compound: CC(=O)NCCCCCC(=O)N1C[C@H](NS(=O)(=O)c2ccc(-c3ccccc3)cc2)[C@@H](S)C1 (racemic)
result: 63

1. O=C(OCc1ccccc1)N1C[C@H](S)[C@H](NS(=O)(=O)c2ccc(Oc3ccccc3)cc2)C1
2. CN([C@H]1CN(C(N)=O)C[C@@H]1S)S(=O)(=O)c1ccc(Oc2ccccc2)cc1 (racemic)
3. CC(=O)NCCCCCC(=O)N1C[C@H](NS(=O)(=O)c2ccc(Oc3ccccc3)cc2)[C@@H](S)C1 (racemic)
4. O=S(=O)(N[C@H]1CNC[C@@H]1S)c1ccc(Oc2ccccc2)cc1 (racemic) [Example 3, Hydrochloride]
query: Hey, quick one: sort these by Ki, largest value first please. Answer format: the labels, in the requested order.
result: 1, 4, 3, 2
(1: 1800 nM, 4: 27 nM, 3: 3.8 nM, 2: 2.3 nM)

a. O=C(NCCN1C(=O)c2ccccc2C1=O)N1C[C@H](NS(=O)(=O)c2ccc(Oc3ccccc3)cc2)[C@@H](S)C1 (racemic)
b. NC(=O)N1C[C@H](NS(=O)(=O)c2ccc(Oc3ccccc3)cc2)[C@@H](S)C1 (racemic) [Example 1]
query: Of a and b , which one carries the higher reported Ki? Select an item and report its label.
result: a
(a: 35 nM, b: 3.9 nM)

A. NCCCCCC(=O)N1C[C@H](NS(=O)(=O)c2ccc(Oc3ccccc3)cc2)[C@@H](S)C1 (racemic) [Example 7, Hydrochloride]
B. O=C(OCc1ccccc1)N1C[C@@H](S)[C@@H](NS(=O)(=O)c2ccc(Oc3ccccc3)cc2)C1
C. O=S(=O)(N[C@H]1CNC[C@@H]1S)c1ccc(Oc2ccccc2)cc1 [Example 10, Hydrochloride]
query: Sort low-to-high on Ki, please. Give the order by naming the labels one after another as requested.
result: A, C, B
(A: 2.2 nM, C: 38 nM, B: 800 nM)
